biological target: Cytochrome P450 2C8 (Homo sapiens); assay: Reversible inhibition of CYP2C8 amodiaquine-N-deethylase activity in human liver microsomes by LC-MS/MS analysis; assay type: ADME
Sequence (P10632 whole entry): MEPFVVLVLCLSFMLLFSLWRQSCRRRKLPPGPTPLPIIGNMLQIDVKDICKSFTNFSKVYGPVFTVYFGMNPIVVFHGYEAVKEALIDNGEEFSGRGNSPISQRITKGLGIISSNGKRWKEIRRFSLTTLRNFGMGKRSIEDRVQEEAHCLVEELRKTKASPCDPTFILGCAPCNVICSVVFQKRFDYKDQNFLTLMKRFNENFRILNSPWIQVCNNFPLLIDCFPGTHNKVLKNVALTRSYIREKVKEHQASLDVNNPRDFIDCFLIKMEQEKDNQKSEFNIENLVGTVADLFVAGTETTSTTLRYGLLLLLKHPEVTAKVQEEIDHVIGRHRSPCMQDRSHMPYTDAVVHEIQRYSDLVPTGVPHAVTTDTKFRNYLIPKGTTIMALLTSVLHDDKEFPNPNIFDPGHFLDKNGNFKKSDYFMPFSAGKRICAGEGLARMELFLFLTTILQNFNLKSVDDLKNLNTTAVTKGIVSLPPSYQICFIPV
result_type: IC50

[
  {
    "query_smiles": "COc1ccc(Cl)cc1-c1cc(=O)[nH]c(=S)n1CC(N)=O",
    "endpoint_result": "> 100 µM"
  }
]

====

Target: Myeloperoxidase (Homo sapiens) (UniProt P05164)
Sequence (whole entry): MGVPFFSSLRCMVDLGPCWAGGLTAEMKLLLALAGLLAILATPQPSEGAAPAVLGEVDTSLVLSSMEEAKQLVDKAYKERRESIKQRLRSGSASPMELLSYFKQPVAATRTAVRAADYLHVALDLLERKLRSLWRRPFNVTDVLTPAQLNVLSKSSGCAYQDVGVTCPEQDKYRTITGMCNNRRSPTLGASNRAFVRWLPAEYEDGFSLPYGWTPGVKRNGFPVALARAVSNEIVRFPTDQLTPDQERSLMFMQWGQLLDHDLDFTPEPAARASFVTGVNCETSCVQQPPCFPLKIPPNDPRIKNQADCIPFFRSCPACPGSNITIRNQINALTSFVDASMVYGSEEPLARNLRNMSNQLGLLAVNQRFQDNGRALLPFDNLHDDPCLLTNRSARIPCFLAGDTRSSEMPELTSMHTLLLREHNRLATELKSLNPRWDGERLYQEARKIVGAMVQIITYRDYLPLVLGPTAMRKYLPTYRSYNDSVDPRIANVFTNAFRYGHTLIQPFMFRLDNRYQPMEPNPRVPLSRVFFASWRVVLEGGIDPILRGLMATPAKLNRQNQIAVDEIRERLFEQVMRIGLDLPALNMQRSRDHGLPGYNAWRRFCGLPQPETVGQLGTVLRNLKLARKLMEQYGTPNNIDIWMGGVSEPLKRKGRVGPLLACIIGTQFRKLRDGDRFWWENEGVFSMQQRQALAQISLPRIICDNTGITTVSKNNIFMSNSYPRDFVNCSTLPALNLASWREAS
Experiment: Inhibition of peroxidase activity of MPO isolated from human polynuclear leukocytes using Amplex Red as substrate assessed as formation of resorufin measured every 20 secs by spectrophotometric analysis

[
  {
    "query_smiles": "COc1ccc(-c2cc(=O)[nH]c(=S)n2CCOC(C)C)c(OC)c1",
    "pKinact": 2.43
  },
  {
    "query_smiles": "COc1ccc(-c2cc(=O)[nH]c(=S)n2CCO)c(OC)c1",
    "pKinact": 2.34
  },
  {
    "query_smiles": "COc1ccc(Cl)cc1-c1cc(=O)[nH]c(=S)n1CC(N)=O",
    "pKinact": 2.43
  },
  {
    "query_smiles": "COc1ccc(OC)c(-c2cc(=O)[nH]c(=S)n2CC(N)=O)c1",
    "pKinact": 2.38
  }
]
